// reported pIC50 for each item listed
# tested_on: β2-adaptin (Homo sapiens, UniProt P63010)
# Construct: gene AP2B1; residues 700-937 StrepTagII used only for DSF
# Sequence (P63010 2-937): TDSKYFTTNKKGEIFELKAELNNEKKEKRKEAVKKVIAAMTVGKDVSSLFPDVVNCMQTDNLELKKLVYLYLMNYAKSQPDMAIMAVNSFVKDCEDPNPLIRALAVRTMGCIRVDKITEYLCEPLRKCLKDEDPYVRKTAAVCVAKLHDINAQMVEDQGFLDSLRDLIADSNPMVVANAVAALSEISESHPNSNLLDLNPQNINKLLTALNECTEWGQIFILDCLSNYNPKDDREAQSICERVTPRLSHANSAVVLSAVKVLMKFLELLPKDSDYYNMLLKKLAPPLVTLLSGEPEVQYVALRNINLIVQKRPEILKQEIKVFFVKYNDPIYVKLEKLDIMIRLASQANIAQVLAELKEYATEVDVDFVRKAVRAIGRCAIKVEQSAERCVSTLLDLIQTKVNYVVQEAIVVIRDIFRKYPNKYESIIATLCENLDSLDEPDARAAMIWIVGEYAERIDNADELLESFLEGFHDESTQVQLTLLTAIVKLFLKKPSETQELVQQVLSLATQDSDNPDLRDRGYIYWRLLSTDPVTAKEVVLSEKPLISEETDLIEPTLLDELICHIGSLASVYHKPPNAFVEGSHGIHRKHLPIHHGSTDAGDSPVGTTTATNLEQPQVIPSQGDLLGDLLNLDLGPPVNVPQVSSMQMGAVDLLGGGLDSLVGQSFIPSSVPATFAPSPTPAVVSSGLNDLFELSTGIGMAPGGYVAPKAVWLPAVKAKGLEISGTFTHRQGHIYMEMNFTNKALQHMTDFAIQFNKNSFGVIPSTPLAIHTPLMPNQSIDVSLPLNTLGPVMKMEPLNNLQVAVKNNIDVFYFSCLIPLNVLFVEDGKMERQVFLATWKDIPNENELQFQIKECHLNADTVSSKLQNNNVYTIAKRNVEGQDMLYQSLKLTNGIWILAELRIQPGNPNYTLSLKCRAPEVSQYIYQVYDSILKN
# Sequence (P49407 whole entry partner, the tested form may be a part): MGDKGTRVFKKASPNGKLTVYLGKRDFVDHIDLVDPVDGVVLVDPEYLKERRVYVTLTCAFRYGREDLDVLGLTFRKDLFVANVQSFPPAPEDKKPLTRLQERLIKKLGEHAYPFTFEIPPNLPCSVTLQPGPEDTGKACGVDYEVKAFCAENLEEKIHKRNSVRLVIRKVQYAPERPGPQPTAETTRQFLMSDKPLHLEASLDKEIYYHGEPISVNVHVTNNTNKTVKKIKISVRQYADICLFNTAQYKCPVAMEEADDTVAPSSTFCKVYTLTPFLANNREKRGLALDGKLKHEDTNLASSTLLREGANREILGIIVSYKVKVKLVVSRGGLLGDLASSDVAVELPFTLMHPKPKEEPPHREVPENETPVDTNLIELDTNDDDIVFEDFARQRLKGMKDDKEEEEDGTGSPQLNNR
# test_description: cell-based
# Parameters: species or system HEK293T
# condition_context: β-arrestin1/β2-adaptin interaction, V2R stimulated; read-out: IC50 AP2/βarr1 (V2R)
Lab note: report pIC50 as minus log10 of the concentration in molar units, number only.

{"columns": ["structure", "readout_number"],
 "data": [
  ["Cc1nc2scc(-c3ccc(C(C)(C)C)cc3)c2c(=O)n1N", 4.81],
  ["Nn1cnc2scc(-c3ccc(-c4ccccc4)cc3)c2c1=O", 4.27]
]}

// below: pIC50 requested for another compound
Per the reported β2-adaptin (Homo sapiens, UniProt P63010) data, `Nn1cnc2scc(-c3ccc(Cc4ccccc4)cc3)c2c1=O` has pIC50 of 4.84

# credit: paper PMC5399295
